FYI, the data here is from paper PMC10457970.

# measurement-target: HIV-1 IN in the presence of LEDGF/p75 cellular cofactor (Human immunodeficiency virus type 1 group M subtype B)
# Construct: Recombinant 6xHis IN protein, FLAG-IN, His-LEDGF and FLAG-LEDGF were expressed in Escherichia coli strain BL21 (DE3); made in house; host or cells: Escherichia coli BL21 (DE3)
# assay-text: HTRF LEDGF-dependent HIV-1 IN activity assay
# Format: biochemical
# test-conditions: pure compounds; mean ± SD of three independent experiments
Each entry below carries its recorded pIC50.
Lab note — pIC50 values are minus log10 of concentrations in M.

Using known records, supply pIC50 for "CC#CC#C/C=C1/O[C@@]2(OC=C[C@H]2OC(C)=O)[C@@H](O)[C@@H]1Cl"
5.84

***
Output measured pIC50 for this item: CC#CC#C/C=C1\C=CC2(CCCO2)O1 (stereo not drawn)
5.77

Answer with reported pIC50 of CC#CC#C/C=C1\C=CC2(OC=CC2OC(C)=O)O1 (stereo not drawn)
4.83
